Values were extracted from patent US8822471B2.

# STUDY_TARGET: human GPR119 (Homo sapiens, UniProt Q8TDV5)
# Construct: expression vector for human GPR119 cDNA (Acc. No. NP_848566)
# Sequence (Q8TDV5 whole entry): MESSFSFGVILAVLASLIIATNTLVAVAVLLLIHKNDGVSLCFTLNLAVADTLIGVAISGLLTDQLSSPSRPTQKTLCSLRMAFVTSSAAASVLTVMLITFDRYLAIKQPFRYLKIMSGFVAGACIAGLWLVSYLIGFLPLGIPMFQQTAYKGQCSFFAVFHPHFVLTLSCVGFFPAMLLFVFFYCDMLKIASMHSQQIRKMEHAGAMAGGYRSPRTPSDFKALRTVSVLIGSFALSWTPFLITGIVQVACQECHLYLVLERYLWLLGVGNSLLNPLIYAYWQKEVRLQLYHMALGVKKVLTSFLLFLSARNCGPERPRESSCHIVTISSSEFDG
# ASSAY_DETAILS: AlphaScreen cAMP assay in MIN6 cells stably transfected with human GPR119
# CONDITION_SUMMARY: Min-6/hGPR119 cells, AlphaScreen cAMP Assay Kit, 45 minutes incubation at room temperature
PROPERTY: pEC50
// pEC50: -log10(molar conc.)

Example cases with answers are listed next.
[[record]]
compound = "COc1ccc(-c2cnc(N3CCC(N(C(=O)c4ccc(-c5cnco5)cc4)C4CC4)CC3)nc2)cc1 [Example 27]"
property = "pEC50"
number = 7.15

[[record]]
compound = "O=C(c1ccc(-c2cnco2)cc1)N(C1CC1)C1CCN(c2nc(-c3ccc(F)cc3)no2)CC1 [Example 10]"
property = "pEC50"
number = 7.89

[[record]]
compound = "CC(C)Oc1cnc(N2CCC(N(C(=O)c3ccc(-c4cnco4)cc3)C3CC3)CC2)nc1 [Example 77]"
property = "pEC50"
number = 6.94

[[record]]
compound = "O=C(c1ccc(-c2cnco2)cc1)N(C1CC1)C1CCN(c2nc(CC(F)(F)F)no2)CC1 [Example 62]"
property = "pEC50"
number = 7.80

[[record]]
compound = "Cc1cnc(N2CCC(N(C(=O)c3ccc(-c4cnco4)cc3)C3CC3)CC2)c(F)c1 [Example 73]"
property = "pEC50"
number = 7.42


Consider NC(=O)c1ccc(-c2ccc(C(=O)N(C3CC3)C3CCN(c4nc(-c5ccccc5)no4)CC3)cc2)cc1 [Example 39] . Its measured pEC50 is 7.06
